Assay: Protein binding (plasma equilibrium dialysis)
Type: in vitro ADME
Details: 5 hours at 37° C., read-out: Protein Binding Fraction Bound (converted)
value-type: fraction unbound at 5 h, 1 μM

{"columns": ["smiles-input", "value-reported"],
 "data": [
  ["COc1ccc(-c2ccc(Oc3[nH]nnc3C(=O)O)cc2)cc1OC", 0.008],
  ["CS(=O)(=O)c1ccc(-c2cccc(Oc3[nH]nnc3C(=O)O)c2)cc1", 0.022],
  ["O=C(O)c1nn[nH]c1Oc1cccc(-c2cc(Cl)cc(Cl)c2)c1", 0.017],
  ["O=C(O)c1nn[nH]c1Oc1cccc(-c2ccncc2)c1", 0.047],
  ["C#Cc1cccc(Oc2[nH]nnc2C(=O)O)c1", 0.025],
  ["COc1ccc(-c2cccc(Oc3[nH]nnc3C(=O)O)c2)cc1", 0.089]
]}
